Source listed as patent US20230227435A1.

study-system: human IL-17AA (Homo sapiens, UniProt Q16552)
Sequence (Q16552 24-155): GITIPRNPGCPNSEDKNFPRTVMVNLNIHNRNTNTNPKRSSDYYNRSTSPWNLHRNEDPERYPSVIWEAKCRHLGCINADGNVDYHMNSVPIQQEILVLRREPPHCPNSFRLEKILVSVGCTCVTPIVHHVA
Sequence (Q16552 24-155): as above
experiment-notes: IL-8 release assay in human epithelial keratinocytes adult (HEKa)
experimental-parameters: HEKa cells; 3 ng/mL HEK-human IL-17AA + 10 ng/mL human TNFalpha; 68-72 hours; IL-8 by HTRF; read-out: Rel EC50 IL-8 release assay
property-name: pEC50
The read-out pEC50 is expressed as -log10 of concentration in moles per litre.

Consider the worked cases shown below.
>>> test_result("Cc1n[nH]c(C)c1-c1ccc(NC(=O)C(c2nnc(-c3cnn(C(C)C)c3)[nH]2)C(C2CC2)C2CC2)cc1 (stereo not shown)")
6.57
>>> test_result("Cc1cncc(-c2nnc(C(C(=O)Nc3ccc(-c4c(C)n[nH]c4C)cc3)C(C3CC3)C3CC3)[nH]2)c1 (stereo not shown)")
6.96
>>> test_result("Cc1cnn(C)c1-c1nnc(C(C(=O)Nc2ccc(-c3c(C)n[nH]c3C)cc2)C(C2CC2)C2CC2)[nH]1 (stereo not shown)")
6.42

Now consider the entry below.
Data request: What value of pEC50 has been recorded for this entry: Cc1n[nH]c(C)c1-c1ccc(NC(=O)C(c2nnc(C3CCOC3)[nH]2)C(C2CC2)C2CC2)cc1 (stereo not shown)
Data returned: 5.80

* * *

study-system: human IL-17AA (Homo sapiens, UniProt Q16552)
Construct: host or cells: HEK (human embryonic kidney) cells
experiment-notes: IL-8 release assay in human epithelial keratinocytes adult (HEKa)
Assay type: cell-based
experimental-parameters: HEKa cells; 3 ng/mL HEK-human IL-17AA + 10 ng/mL human TNFalpha; 68-72 hours; IL-8 by HTRF; read-out: Rel EC50 IL-8 release assay
Procedure: Example 8: IL-8 Release Assay in Human Epithelial Keratinocytes Adult (HEKa) Keratinocytes were seeded at 3500 cells/well in 384-well ViewPlates (Perkin Elmer) in Epilife medium (Thermo Fisher) containing human keratinocyte growth supplement (HKGS) without hydrocortisone and incubated in a humid incubator at 37° C., 5% CO2, overnight. […] IL-8 released from the cells was measured by the use of a commercial homogenous time-resolved fluorescence (HTRF) assay (CisBio). […]
Classify by EC50. Ranges: lower band (below 300 nM), central band (300 nM to below 400 nM), upper band (400 nM or more)

>>> cat("CCn1nccc1-c1cnc(C(C(=O)Nc2ccc(-c3c(C)n[nH]c3C)cc2)C(C2CC2)C2CC2)[nH]1 (centres unmarked) [Example 67]")
"lower band"

Data request: Sort into band: Cc1n[nH]c(C)c1-c1ccc(NC(=O)C(c2nnc(-c3ccnc(C(F)F)c3)[nH]2)C(C2CC2)C2CC2)cc1 (centres unmarked) [Example 55]
Data returned: lower band

Data request: Sort into band: COc1ccc(-c2nnc(C(C(=O)Nc3ccc(-c4c(C)n[nH]c4C)cc3)C(C3CC3)C3CC3)[nH]2)cn1 (centres unmarked) [Example 34]
Data returned: upper band

Data request: Sort into band: Cc1n[nH]c(C)c1-c1ccc(NC(=O)C(c2nnc(-c3c(C)noc3C)[nH]2)C(C2CC2)C2CC2)cc1 (centres unmarked) [Example 32]
Data returned: upper band

Data request: Sort into band: Cc1n[nH]c(C)c1-c1ccc(NC(=O)C(c2nnc(-c3ccnn3C(C)C)[nH]2)C(C2CC2)C2CC2)nc1F (centres unmarked) [Example 11]
Data returned: lower band

Data request: Sort into band: Cc1cc(-c2nnc(C(C(=O)Nc3ccc(-c4c(C)n[nH]c4C)cc3)C(C3CC3)C3CC3)[nH]2)n(C)n1 (centres unmarked) [Example 47]
Data returned: lower band

Data request: Sort into band: Cc1n[nH]c(C)c1-c1ccc(NC(=O)C(c2nc(-c3ccccc3)c[nH]2)C(C2CC2)C2CC2)cc1 (centres unmarked) [Example 2]
Data returned: central band
